tested on: M14; experiment: NCI tumour cell line growth inhibition, 48 h
Activity calls are given as the source filed them. Rule as the data show it: active = GI50 up to about 1.1 µM and inactive = higher.
endpoint_name: GI50

# annotated cases, reported GI50 shown
[
  {
    "compound": "CCOC(=O)/C(C)=C(/O)C(=O)OCC",
    "assay_target": "M14",
    "GI50": "> 100 µM (inactive)"
  },
  {
    "compound": "CC1=NN(C(=O)CC(=O)Nc2ccccc2)C(=O)C1/N=N/c1ccc(C(=O)O)cc1 (configuration not stated)",
    "assay_target": "M14",
    "GI50": "> 100 µM (inactive)"
  },
  {
    "compound": "c1ccc2cc(OCC3CO3)c(OCC3CO3)cc2c1 (configuration not stated)",
    "assay_target": "M14",
    "GI50": "1.64 µM (inactive)"
  }
]

Under M14: GI50 value of CC(O)C(O)C(O)C(/C=N\Nc1ccccc1)=N/Nc1ccccc1 (configuration not stated) ?
13.3 µM (inactive)

Provide value of GI50 for this record tested with M14: N=C(N)SCCON1C(=O)c2ccccc2C1=O
> 100 µM (inactive)

Lab note: need GI50 with M14 for entry Cc1ccc(C(=O)NCCN(C)C)c2nc3ccccc3cc12 , please look it up.
2.69 µM (inactive)

// fetch M14 GI50 for CCCCNS(=O)(=O)c1n[nH]c(=O)[nH]c1=O
> 100 µM (inactive)

What GI50 appears in the records for this compound with M14? CCCC(Sc1nc(N)nc2nc[nH]c12)C(=O)O (configuration not stated)
53.2 µM (inactive)

Request - read-out GI50 | tested on M14 | compound CC(C)=C/C(CC(O)(C(F)(F)F)C(F)(F)F)=N\O
> 100 µM (inactive)

Which GI50 is reported with M14 for this entry: Cc1ccc(C(=O)N2CCN(C(=O)c3ccc(C)cc3)c3ccccc32)cc1 ?
4.57 µM (inactive)

====

system: LOX IMVI; experiment: NCI tumour cell line growth inhibition, 48 h
Active and inactive are the calls of the source. Cut-off read from the data, not from the text of the source: active = GI50 up to about 1.1 µM and inactive = higher.
Listed compounds paired with reported GI50

[
  {
    "compound": "COc1ccc(Cc2n[nH]c(Nc3ccc(Br)cc3)nc2=O)cc1OC",
    "GI50": "69.5 µM (inactive)"
  },
  {
    "compound": "Cc1ccc(C(=O)N2CCN(C(=O)c3ccc(C)cc3)c3ccccc32)cc1",
    "GI50": "6.44 µM (inactive)"
  }
]

Consider the compound shown here: N#CC1=C2Sc3ccccc3N2[C@H](c2ccccc2)[C@H]2COC(=O)[C@@H]12 What is its recorded GI50?
26.3 µM (inactive)

Dear colleague, I am looking for the recorded GI50 of the following compound: Cc1ccc(C2COc3cc(O)c(O)cc3C2)cc1 (stereo not given)
12.1 µM (inactive)

Query: GI50; subject: Cc1ccc2c(c1)NC(=O)CC(c1ccccc1)=N2
> 100 µM (inactive)

State the recorded GI50 for this entry: CCOP(=O)(OCC)/C(C#N)=C/c1cccn1C(C)C
> 100 µM (inactive)

What measured GI50 goes with CCOP(=O)(OCC)/C(=C\n1c(=S)[nH]c2cc(C)ccc21)C(=O)OC ?
> 100 µM (inactive)

Quick one: GI50 of CC(O)C1(O)C(O)CC(OC2c3cc4c(c(O)c3[C@@H]3C[C@@]2(C)OC32C=c3cc[nH]c3=N2)C(=O)c2cccc(O)c2C4=O)OC1C (stereo not given in full) ?
0.555 µM (active)

Looking for the measured GI50 of N#CC1=C(S)N(C2OC(CO)C(O)C(O)C2O)C(c2ccccc2)=CC1c1ccco1 (stereo not given) , can you help?
23.2 µM (inactive)

Look up GI50: N#CC(C#N)=c1ccc(=C2NCC3CCCN23)cc1 (stereo not given)
> 100 µM (inactive)

Requested field: GI50. Item: COc1cc2c(c(OC)c1OC)C(=O)[C@H]1OC(=O)N[C@@H]21
> 100 µM (inactive)

# get_value(readout='GI50', item= C1=C[C@]2(CCC13OCCO3)COc1ccccc12 )
21.5 µM (inactive)

====

test system: MCF7; assay: NCI tumour cell line growth inhibition, 48 h
Calls of active or inactive are those of the source. Cut-off read from the data, not from the text of the source: active = GI50 up to about 1.1 µM and inactive = higher.
# reported GI50; entries follow

Consider the worked cases shown below.
[
  {
    "compound": "COc1cc2cc(C(=O)N3CC(CCl)c4c3cc([N+](=O)[O-])c3ccccc43)[nH]c2c(OC)c1OC (stereo not drawn)",
    "GI50": "17.3 µM (inactive)"
  },
  {
    "compound": "N/N=C(\\c1nc2ccc([N+](=O)[O-])cc2nc1O)C(O)c1ccc(Cl)c(Cl)c1 (stereo not drawn)",
    "GI50": "> 100 µM (inactive)"
  },
  {
    "compound": "C=CC1(CC[C@]2(c3ccc(OC)c(OC)c3)C=[N+]([O-])O[C@H](O[C@@H]3CCCC[C@H]3C(C)(C)c3ccccc3)C2)OCC(C)(C)CO1",
    "GI50": "3.65 µM (inactive)"
  }
]

Lab note: need GI50 for CC(O)C(O)C(O)C(/C=N\Nc1ccccc1)=N/Nc1ccccc1 (stereo not drawn) on MCF7, anyone have it?
10.5 µM (inactive)

Return GI50 measured with MCF7 given this compound: CCCCCCCCCCCCCCCCSCC(COC)COP(=O)([O-])OCC[N+](C)(C)C (stereo not drawn)
13.2 µM (inactive)

Missing value: GI50, MCF7, entry CCOP(=O)(OCC)/C(=C\n1c(=S)[nH]c2cc(C)ccc21)C(=O)OC . Fill in?
> 100 µM (inactive)

Could you share what GI50 was measured for O=C(O)CC(NC(=O)/C(=C/c1ccccc1O)NC(=O)c1ccccc1)C(=O)O (stereo not drawn) , tested on MCF7?
34 µM (inactive)

Report GI50 for CCOC(=O)c1c(CN2CCNCC2)nc2ccc(Cl)cc2c1-c1ccccc1 tested on MCF7.
11 µM (inactive)

====

system: SF-268; experiment: NCI tumour cell line growth inhibition, 48 h
The source made the active and inactive calls. Rule as the data show it: active = GI50 up to about 1.1 µM and inactive = higher.
Pick one: active, inactive

# count of solved cases: 3
[
  {
    "compound": "COc1ccc(/N=N/C(=NNC(=O)c2ccc(C)cc2)c2ccc(N(C)C)cc2)cc1",
    "class_name": "inactive"
  },
  {
    "compound": "CC(C)(C)CC(C)(C)NCC(O)COc1ccc(C(C)(C)c2ccc(OCC(O)CNC(C)(C)CC(C)(C)C)cc2)cc1 (stereo unspecified)",
    "class_name": "inactive"
  },
  {
    "compound": "Cc1ccc(C(=O)CC(O)(C(F)(F)F)C(F)(F)F)cc1[N+](=O)[O-]",
    "class_name": "inactive"
  }
]

We now examine a further compound.
What did this assay record as the result for Cc1cccc2c(=O)c3cccc(CC(=O)O)c3oc12 ?
inactive

====

tested on: HCT-116; experiment: NCI tumour cell line growth inhibition, 48 h
Activity calls are given as the source filed them. Cut-off read from the data, not from the text of the source: active = GI50 up to about 1.1 µM and inactive = higher.
In this exercise, the only acceptable responses are yes (1) for active, no (0) for inactive

[
  {
    "molecule": "COc1cc2cc(C(=O)N3CC(CCl)c4c3cc([N+](=O)[O-])c3ccccc43)[nH]c2c(OC)c1OC (centres undefined)",
    "class_name": "no (0)"
  }
]

Record request — test call for CCN(CC)CCn1nc(N)c2nc3cc(Cl)ccc3nc21
no (0)

Write down the call the test reported for this molecule. Item: COC(=O)[C@@]12C3=NO[C@]1(C(=O)OC)C(O[Si](C)(C)C(C)(C)C)C1OC(C)(C)OC1[C@@H]2[C@@H](OCc1ccccc1)CC3 (some centres undefined)
no (0)

Test call, this molecule: O=C1C=CC(=O)c2c1ccc1c3ccccc3n(Cc3ccc([N+](=O)[O-])cc3)c21
no (0)

What was the test verdict on CCC/C(Cl)=N/OC(NC(=O)OCC)(C(F)(F)F)C(F)(F)F ?
no (0)

Which result was noted for this molecule in the test: Cc1c(-c2coc(-c3ccc([N+](=O)[O-])cc3)n2)c(=O)n(-c2ccccc2)n1C
no (0)

====

system: OVCAR-8; assay: NCI tumour cell line growth inhibition, 48 h
The source made the active and inactive calls. Cut-off read from the data, not from the text of the source: active = GI50 up to about 1.1 µM and inactive = higher.
Could you please pick one outcome from this set? active, inactive

[
  {
    "compound": "Cc1ccc(/C=N\\NC(=O)c2ccncc2)s1",
    "class_name": "inactive"
  },
  {
    "compound": "CCC(C)OC(=O)C1C2CCC(O2)C1C(=O)O (configuration not stated)",
    "class_name": "inactive"
  },
  {
    "compound": "CN(C)c1ccc(/C=c2/c3ccccc3n3c2cc(/C=C/c2ccccc2)[n+]3C)cc1",
    "class_name": "active"
  },
  {
    "compound": "Clc1ccc(C2=Nc3ccccc3SC(c3ccc(Cl)c(Cl)c3)C2)c(Cl)c1 (configuration not stated)",
    "class_name": "inactive"
  },
  {
    "compound": "COc1ncnc2c1cnn2Cc1cn(CCCCO)nn1",
    "class_name": "inactive"
  },
  {
    "compound": "CC/C=C/C(/C=C/C[C@]1(CC)C[C@H](CC)[C@H](CC(=O)O)OO1)CC (some centres not stated)",
    "class_name": "inactive"
  }
]

Moving on to the next compound.
Per the assay record, what outcome was assigned to COP(=O)(OC)C(NC(=O)C(F)(F)F)(c1ccccc1)C(F)(F)F (configuration not stated) ?
inactive
